Biological target: T1, GFP-9S library array, motif 4 ND N98K;D124P (synthetic construct, N98K;D124P)
T1 chain: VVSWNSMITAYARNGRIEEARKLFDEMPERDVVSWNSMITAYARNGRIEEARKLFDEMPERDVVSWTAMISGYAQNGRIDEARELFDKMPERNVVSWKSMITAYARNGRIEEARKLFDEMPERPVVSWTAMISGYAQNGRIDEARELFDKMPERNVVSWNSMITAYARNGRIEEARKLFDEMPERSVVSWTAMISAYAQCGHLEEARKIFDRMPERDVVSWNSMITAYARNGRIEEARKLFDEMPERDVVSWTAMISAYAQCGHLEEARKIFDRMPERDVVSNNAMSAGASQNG
Test: high-throughput RNA pulldown from lysate on Ni-NTA beads; HRP: 50 mM Tris pH 8, 150 mM NaCl, 1 mM beta-mercaptoethanol, 50 ug/ml BSA, 3 ug/ml yeast RNA, 0.5% heparin; ITC and FP: Tris pH 8, 200 mM KCl, 5% glycerol; MST: 50 mM Tris pH 8, 200 mM NaCl, 1 mM DTT, BSA, heparin, 0.05% Tween 20
Conditions: tags: N-terminal His-eGFP; label: 5' IRDye 800CW
pKd: −log10 of the molar value.

>  <Binder>
AUUAUACGUGA (ssRNA) [IR-rpoA-U]

>  <pKd>
7.12

$$$$
>  <Binder>
AUUAAACGUGA (ssRNA) [IR-rpoA-A]

>  <pKd>
6.71

$$$$
